Taken from patent US20250018014A1.

# Target Under Test: T1, C-terminal domain-deleted human Regnase-1 (amino acids 1 to 546) with N-terminal FLAG tag and C-terminal BirA … (human, UniProt Q5D1E8 1-546)
# T1 sequence: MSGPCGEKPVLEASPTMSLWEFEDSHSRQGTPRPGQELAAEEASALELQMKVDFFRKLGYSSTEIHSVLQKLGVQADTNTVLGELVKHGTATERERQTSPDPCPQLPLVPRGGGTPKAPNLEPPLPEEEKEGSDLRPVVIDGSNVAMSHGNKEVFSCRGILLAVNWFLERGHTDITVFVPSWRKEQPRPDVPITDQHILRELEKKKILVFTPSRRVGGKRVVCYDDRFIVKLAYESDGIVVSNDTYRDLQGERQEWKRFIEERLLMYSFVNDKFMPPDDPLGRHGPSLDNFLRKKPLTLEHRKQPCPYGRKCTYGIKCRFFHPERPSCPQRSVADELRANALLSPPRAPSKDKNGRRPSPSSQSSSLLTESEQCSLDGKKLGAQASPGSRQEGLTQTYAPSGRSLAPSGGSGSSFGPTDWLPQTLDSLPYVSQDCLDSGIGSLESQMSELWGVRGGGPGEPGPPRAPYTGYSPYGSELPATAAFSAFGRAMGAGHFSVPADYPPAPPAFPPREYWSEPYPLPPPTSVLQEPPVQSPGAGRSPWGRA
# Assay Summary: cell-based or functional assay
Positions of bridges follow the written chain, without caps; N, C: chain ends. Non-standard residues stand in square brackets, D forms with d. *: point of attachment. Pyrrolidide = C1CCN(*)C1; dNMeA = CN[C@H](C)C(=O)O
Decide by 50% inhibition concentration, Regnase-1 phosphorylation by TBK1 (AlphaScreen): equal to or exceeding 30 µM means 1 (yes), less means 0 (no).

Please tell me: is the binder XKFAQFRWIYPD (HELM PEPTIDE1{[meA].K.F.A.Q.F.R.W.I.Y.P.D.[C1CCN([*:1])C1]}$PEPTIDE1,PEPTIDE1,1:R1-12:R3$$$V2.0; SMILES CC[C@H](C)[C@@H]1NC(=O)[C@H](Cc2c[nH]c3ccccc23)NC(=O)[C@H](CCCNC(=N)N)NC(=O)[C@H](Cc2ccccc2)NC(=O)[C@H](CCC(N)=O)NC(=O)[C@H](C)NC(=O)[C@H](Cc2ccccc2)NC(=O)[C@H](CCCCN)NC(=O)[C@H](C)N(C)C(=O)C[C@@H](C(=O)N2CCCC2)NC(=O)[C@@H]2CCCN2C(=O)[C@H](Cc2ccc(O)cc2)NC1=O) [PP11] at or over 30 µM in terms of 50% inhibition concentration, Regnase-1 phosphorylation by TBK1 (AlphaScreen)? 1 (yes)

# bool: 50% inhibition concentration, Regnase-1 phosphorylation by TBK1 (AlphaScreen) of XDIWFDYWDWD (HELM PEPTIDE1{[meA].D.I.W.F.D.Y.W.D.W.D.[C1CCN([*:1])C1]}$PEPTIDE1,PEPTIDE1,1:R1-11:R3$$$V2.0; SMILES CC[C@H](C)[C@@H]1NC(=O)[C@H](CC(=O)O)NC(=O)[C@H](C)N(C)C(=O)C[C@@H](C(=O)N2CCCC2)NC(=O)[C@H](Cc2c[nH]c3ccccc23)NC(=O)[C@H](CC(=O)O)NC(=O)[C@H](Cc2c[nH]c3ccccc23)NC(=O)[C@H](Cc2ccc(O)cc2)NC(=O)[C@H](CC(=O)O)NC(=O)[C@H](Cc2ccccc2)NC(=O)[C@H](Cc2c[nH]c3ccccc23)NC1=O) [PP17] >= 30 µM 0 (no)

Does the reported 50% inhibition concentration, Regnase-1 phosphorylation by TBK1 (AlphaScreen) for [dNMeA]TYGHSSWYKIWD-Pyrrolidide (lactam N-13) [PP9] fall at or above the 30 µM mark? 0 (no)

Is 50% inhibition concentration, Regnase-1 phosphorylation by TBK1 (AlphaScreen) for XDIWFDYWDYD (HELM PEPTIDE1{[meA].D.I.W.F.D.Y.W.D.Y.D.[C1CCN([*:1])C1]}$PEPTIDE1,PEPTIDE1,1:R1-11:R3$$$V2.0; SMILES CC[C@H](C)[C@@H]1NC(=O)[C@H](CC(=O)O)NC(=O)[C@H](C)N(C)C(=O)C[C@@H](C(=O)N2CCCC2)NC(=O)[C@H](Cc2ccc(O)cc2)NC(=O)[C@H](CC(=O)O)NC(=O)[C@H](Cc2c[nH]c3ccccc23)NC(=O)[C@H](Cc2ccc(O)cc2)NC(=O)[C@H](CC(=O)O)NC(=O)[C@H](Cc2ccccc2)NC(=O)[C@H](Cc2c[nH]c3ccccc23)NC1=O) [PP18] at or above 30 µM? 0 (no)

Would you say XWIWDFWNED (HELM PEPTIDE1{[meA].W.I.W.D.F.W.N.E.D.[C1CCN([*:1])C1]}$PEPTIDE1,PEPTIDE1,1:R1-10:R3$$$V2.0; SMILES CC[C@H](C)[C@@H]1NC(=O)[C@H](Cc2c[nH]c3ccccc23)NC(=O)[C@H](C)N(C)C(=O)C[C@@H](C(=O)N2CCCC2)NC(=O)[C@H](CCC(=O)O)NC(=O)[C@H](CC(N)=O)NC(=O)[C@H](Cc2c[nH]c3ccccc23)NC(=O)[C@H](Cc2ccccc2)NC(=O)[C@H](CC(=O)O)NC(=O)[C@H](Cc2c[nH]c3ccccc23)NC1=O) [PP24] shows 50% inhibition concentration, Regnase-1 phosphorylation by TBK1 (AlphaScreen) at minimum 30 µM? 0 (no)
